Listing of recorded E1/2 (vs. Ag/AgCl (3M KCl))/mV by entry.
- ASSAY PROTOCOL: Midpoint potential E1/2 by voltammetry vs Ag/AgCl (3M KCl)
- Format: physicochemical
- STATED CONDITIONS: pH 6; Example 15 table
- Method: The purified redox-active molecule can be dissolved in aqueous solution at appropriate concentration in the presence of supporting electrolyte and buffer to select the pH of measurement. For example, the redox-active molecule can be dissolved in 10 μM-10 mM concentrations in distilled, deionized water (DDW). […] As described in en.wikipedia.org/wiki/Nernst_equation, the Nernst equation relates E1/2 measured at pH 7 to the E1/2 at a different pH by: […]
QUANTITY: E1/2 (vs. Ag/AgCl (3M KCl))/mV (mV)

- COMPOUND: "Cn1c2cccc(=O)c-2nc2ccccc21 [Pyocyanin (PYO), Pyocyanin]"
  UNIT NAME: "mV"
  RECORDED VALUE: "−189"
- COMPOUND: "Oc1cccc2nc3ccccc3nc12 [1-Hydroxyphenazine (1-OHPHZ), 1-Hydroxyphenazine]"
  UNIT NAME: "mV"
  RECORDED VALUE: "−323"
- COMPOUND: "O=C(O)c1cccc2nc3ccccc3nc12 [Phenazine-1-carboxylate (PCA), Phenazine-1-carboxylate]"
  UNIT NAME: "mV"
  RECORDED VALUE: "−257"
- COMPOUND: "NC(=O)c1cccc2nc3ccccc3nc12 [XXV, phenazine-1-carboxamide]"
  UNIT NAME: "mV"
  RECORDED VALUE: "−278"
